system: SN12C; assay: NCI tumour cell line growth inhibition, 48 h
Activity calls are given as the source filed them. No stated cut-off is given here; in the data, active = GI50 up to about 1.1 µM and inactive = higher.
value-kind: GI50

CC(=O)/C(=N\O)C(=O)Nc1ccc(Cl)cc1Cl : > 100 µM (inactive)
Nc1nc(O)c2[nH]cnc2[n+]1[O-] : 40.5 µM (inactive)
Cc1c(C(=O)C/C(=N/NC(=O)c2ccccc2O)C(=O)Nc2ccccc2C(C)C)[n+]([O-])c2ccccc2[n+]1[O-] : 43.8 µM (inactive)

Query string: Which GI50 is reported for this compound? `N#CCN1C(=O)c2cc([N+](=O)[O-])cc3cc([N+](=O)[O-])cc(c23)C1=O`
Result string: 13.1 µM (inactive)

----------
Listed here are molecules together with their documented GI50.
tested on: IGROV-1; assay: NCI tumour cell line growth inhibition, 48 h
Active and inactive are the calls of the source. Rule as the data show it: active = GI50 up to about 1.1 µM and inactive = higher.

CCCCCCCc1cscc1-c1cscc1Br : 59.7 µM (inactive)

Query string: Which GI50 is reported for this molecule? `N#Cc1ccc(Oc2nc3ccccc3nc2-c2ccccc2)cc1`
Result string: > 100 µM (inactive)

Query string: Which GI50 is reported for this molecule? CCC(=O)C(C)C1=Nc2nnc(CCCCCCCc3nnc4n3C(=O)C(C(C)C(=O)CC)=N4)n2C1=O (stereo unspecified)
Result string: > 100 µM (inactive)

----------
test system: COLO 205; experiment: NCI tumour cell line growth inhibition, 48 h
Calls of active or inactive are those of the source. Rule as the data show it: active = GI50 up to about 1.1 µM and inactive = higher.
Response enum: active, inactive

Below are worked cases with known answers.
O=C1O[C@H](c2ccccc2)[C@@H]2CC3(CCN12)OCCO3 : inactive
COc1ccc2nc(N/N=C/c3ccc(C)s3)cc(C)c2c1 : inactive
Nc1nc(O)c2[nH]cnc2[n+]1[O-] : inactive
CCOC(=O)c1[nH]c(Br)c(-c2ccc(Br)cc2)c1Br : active

Query string: Just curious, what result did `C/C(=N\NC(=O)c1ccc(Cl)cc1)c1nc2cccnc2[nH]1` get here?
Result string: inactive

----------
test system: OVCAR-4; test: NCI tumour cell line growth inhibition, 48 h
Activity calls are given as the source filed them. No stated cut-off is given here; in the data, active = GI50 up to about 1.1 µM and inactive = higher.
Response enum: active, inactive

COC(=O)N/N=C(/CCC(=O)Nc1ccc(C)c(C)c1)CC(=O)C(C)(C)C : inactive
O=C1C(CN2CCCCC2)CCCC1CN1CCCCC1 (stereo unspecified) : inactive
O=c1c2cccnc2[s+]([O-])n1Cc1ccccc1 (stereo unspecified) : inactive
O=C1NC(NCc2ccc(F)cc2)=N/C1=C\c1ccccc1Cl : inactive
C[C@@H]1C[C@@H]([C@H](O)CC2CC(=O)NC(=O)C2)C(=O)[C@@H](C)C1 [CYCLOHEXIMIDE] : active
Cc1nc2cc3ccccc3cc2[nH]c1=O : inactive
N/N=C(\C(=O)Nc1ccc([N+](=O)[O-])cc1)C(C1=Nc2cc([N+](=O)[O-])ccc2NC1)[N+](=O)[O-] (stereo unspecified) : inactive
Oc1ccccc1C1=NOC(c2ccc(C(F)(F)F)cc2)C1 (stereo unspecified) : inactive

Query string: Just curious, what result did CC1(Br)Cc2ccccc2C1=O (stereo unspecified) get here?
Result string: inactive

Query string: Just curious, what result did `CC(C)=CCC[C@@H](C)C1=C(O)C(=O)C(C)=C(Nc2ccccc2)C1=O` get here?
Result string: inactive

Query string: Just curious, what result did C=C(C)C1Cc2c(cc(O)c3c(=O)c4ccccc4n(C)c23)O1 (stereo unspecified) get here?
Result string: inactive

Query string: Just curious, what result did `CCOC(=O)c1c(NCc2ccccc2)n(-c2ccccc2)c(=S)n(-c2ccccc2)c1=O` get here?
Result string: inactive

Query string: Just curious, what result did `CC(/C=N\NC(=S)N1CCCCC1)=N/NC(=S)N1CCCCC1` get here?
Result string: inactive

Query string: Just curious, what result did CC1=NN(c2ccc(S(=O)(=O)O)cc2)C2(C1)C(Cl)C(=O)N2c1nc2ccccc2s1 (stereo unspecified) get here?
Result string: inactive

Query string: Just curious, what result did CCC1(C(=O)OC)CCc2c(OC)ccc(OC)c2C1=O (stereo unspecified) get here?
Result string: inactive

Query string: Just curious, what result did `COc1cc([N+](=O)[O-])c(S(=O)(=O)O)cc1NS(=O)(=O)c1ccc(C)cc1` get here?
Result string: inactive

Query string: Just curious, what result did `Cc1n[nH]c(=O)n1/N=C/c1ccncc1` get here?
Result string: inactive

Query string: Just curious, what result did `COc1cc([C@@H]2c3cc4c(cc3[C@@H](c3c(O)cc(O)c5c3O[C@H](c3ccc(O)c(O)c3)[C@@H](O)C5)[C@H]3COC(=O)[C@H]23)OCO4)cc(OC)c1OC` get here?
Result string: inactive

Query string: Just curious, what result did ClC/C=C/COC1CCCCO1 (stereo unspecified) get here?
Result string: inactive

Query string: Just curious, what result did O=C(Cc1ccccc1)N/N=C(/c1nc2ccc([N+](=O)[O-])cc2nc1O)C(O)c1ccccc1Cl (stereo unspecified) get here?
Result string: inactive

Query string: Just curious, what result did COc1cc(CO)cc2c1[nH]c1ccccc12 [KOENOLINE] get here?
Result string: inactive

----------
test system: T47D; test: NCI tumour cell line growth inhibition, 48 h
Activity calls are given as the source filed them. No stated cut-off is given here; in the data, active = GI50 up to about 1.1 µM and inactive = higher.
value-kind: GI50

// below: answered compounds
O=c1oc2ccccc2c(Nc2ccc3c(c2)Sc2ccccc2O3)c1[N+](=O)[O-] : 20.8 µM (inactive)
O=C(OCc1ccccc1)N1CCNCCNCCN(C(=O)OCc2ccccc2)CCNCC1 : 17.1 µM (inactive)
CCOC(=O)c1[nH]c(Br)c(-c2ccc(Br)cc2)c1Br : 2.39 µM (inactive)
CC(NC(=O)C(N)CC(=O)O)NC(=O)N1CCCC1 (stereo unspecified) : > 100 µM (inactive)
COC(=O)Nc1nc2cc(S(=O)(=O)Nc3ccccn3)ccc2[nH]1 : 44.2 µM (inactive)

Query string: Which GI50 is reported for this compound? Brc1cc(CCOC2CCCCO2)c(-c2sccc2CCOC2CCCCO2)s1 (stereo unspecified)
Result string: > 100 µM (inactive)

----------
tested on: RXF 393; experiment: NCI tumour cell line growth inhibition, 48 h
The source made the active and inactive calls. No stated cut-off is given here; in the data, active = GI50 up to about 1.1 µM and inactive = higher. Where a SMILES comes first, the peptide text is derived from it. [ ]: non-standard residue; d: D form. The star is where a group is joined. Phe(4-NO2) = N[CH](Cc1ccc([N+](=O)[O-])cc1)C(=O)O; Boc = CC(C)(C)OC(=O)*
Response enum: active, inactive

Below are worked cases with known answers.
C/C(=N\NC(=O)c1ccc(Cl)cc1)c1nc2cccnc2[nH]1 : inactive
N#Cc1ccc(Oc2cccc(Oc3ccccc3)c2)cc1C#N : inactive
O=C1O[C@H](c2ccccc2)[C@@H]2CC3(CCN12)OCCO3 : inactive
Cc1c(OC(C)C(=O)O)ccc2c(-c3ccccc3)cc(=O)oc12 (configuration not stated) : inactive
CCOC(=O)CCC(NC(=O)C(Cc1ccc([N+](=O)[O-])cc1)NC(=O)OC(C)(C)C)C(=O)NC(CCC(=O)OCC)C(=O)OCC (configuration not stated) (Boc-[Phe(4-NO2)]-Glu(OEt)-Glu(OEt)-OEt; configuration not given here) : inactive
CC1(/C=C/CCSc2ccccc2)CC(=O)C2CC1C2(C)C (configuration not stated) : inactive
C=C1CC(CNc2cc(Cl)nc(N)n2)C1 : inactive
Cc1nc2ccccc2nc1N1CCCC1 : inactive
COc1ccc2c(c1)CC[C@@H]1[C@@H]2CC[C@]2(C)C(=O)/C(=C/c3ccc(OC)c(OC)c3)C[C@@H]12 : inactive
COC1Cc2c(C)c(OC(C)=O)c3cccnc3c2O1 (configuration not stated) : inactive

Now for a further compound.
Query string: Just curious, what result did CC1(C)CC[C@]2(C(=O)O)CC[C@]3(C)C(=CC[C@@H]4[C@@]5(C)CC[C@H](OC6OC(C(=O)O)C(O)C(O)C6O)C(C)(C)[C@@H]5CC[C@]43C)[C@@H]2C1 (some centres not stated) get here?
Result string: inactive

----------
test system: OVCAR-8; assay: NCI tumour cell line growth inhibition, 48 h
Active and inactive are the calls of the source. Cut-off read from the data, not from the text of the source: active = GI50 up to about 1.1 µM and inactive = higher.
value-kind: GI50

// below: answered compounds
CC(=O)O[C@@H]1C[C@@]23C[C@@]24CC[C@H](OC2OCC(O)C(O)C2O)C(C)(C)[C@@H]4CC=C3[C@]2(C)C[C@@H]3OC4(C[C@@H](C)[C@@H]3[C@@]12C)OC(O)[C@@]1(C)O[C@@H]41 (some centres undefined) : 41.7 µM (inactive)
O=C(O)C(C1NCCS1)N1Cc2ccccc2C1 (centres undefined) : > 100 µM (inactive)
C/C(CN1C(=O)c2ccccc2C1=O)=N\NS(=O)(=O)c1cccc([N+](=O)[O-])c1 : > 100 µM (inactive)

Okay, now this compound:
Query string: Which GI50 is reported for this compound? `Nc1ccc(S(=O)(=O)Nc2cnc3ccccc3n2)cc1`
Result string: > 100 µM (inactive)

----------
test system: UACC-257; test: NCI tumour cell line growth inhibition, 48 h
The source made the active and inactive calls. No stated cut-off is given here; in the data, active = GI50 up to about 1.1 µM and inactive = higher.
Response enum: y = active, n = inactive

Below are worked cases with known answers.
COc1nc2c(c(=O)[nH]1)N=C(c1ccccc1)CC(c1ccccc1)N2 (centres undefined) : n
C=C(CCC/C(C)=C/C=C/[C@@H](C)CCCc1ccoc1)C[C@@H]1OC(=O)[C@H](C)[C@@H]1O : n
COc1ccc(/C=N\N2CC(=O)N3C4C=CC(CC4)N3C2=O)cc1 (centres undefined) : n
CC[C@@]1(O)C(=O)OCc2c1cc1n(c2=O)Cc2c-1nc1ccccc1c2/C=N\NC(=O)C(C)N (some centres undefined) : n
O=C(Cc1ccccc1)N/N=C(/c1nc2ccc([N+](=O)[O-])cc2nc1O)C(O)c1ccccc1Cl (centres undefined) : n
C/C(CCn1[nH]c(=O)ccc1=O)=N\NC(=O)C(N)=O : n
OC(c1ccccc1)C(F)(F)c1nc2ccccc2o1 (centres undefined) : n
c1ccc2c(c1)SC1=Nc3sc4ccccc4[n+]3CN12 : n
Clc1cc2nnn(C3CCCCO3)c2cc1Cl (centres undefined) : n
COc1cc(CC(C)=O)cc(OC)c1 : n

Query string: Just curious, what result did COc1ccccc1NC1=NCC(C)S1 (centres undefined) get here?
Result string: n

Query string: Just curious, what result did CCOC(=O)C1(C#N)C(c2ccccc2)CC(O)(c2ccc(OC)cc2)C(C(=O)c2ccc(OC)cc2)C1c1ccccc1 (centres undefined) get here?
Result string: n

Query string: Just curious, what result did COc1cc(C2c3c(ccc4ccccc34)C(=O)C3CCC(=O)N32)cc(OC)c1O (centres undefined) get here?
Result string: n

Query string: Just curious, what result did CC1(C)CC[C@]2(C(=O)O)CC[C@]3(C)C(=CC[C@@H]4[C@@]5(C)CC[C@H](OC6OC(C(=O)O)C(O)C(O)C6O)C(C)(C)[C@@H]5CC[C@]43C)[C@@H]2C1 (some centres undefined) get here?
Result string: n

Query string: Just curious, what result did CC1(C)CCCCCCC2OC2CCCCCC(C)(C)C1=O (centres undefined) get here?
Result string: n

Query string: Just curious, what result did CN(C)CC1CCCC/C1=N\OC(=O)c1ccccc1 (centres undefined) get here?
Result string: n

Query string: Just curious, what result did `COC(=O)CCn1cnc2c(SC)ncnc21` get here?
Result string: n

Query string: Just curious, what result did CC(C)=CC(=O)OC1C2C(C)=CC(=O)C(O)C2(C)C2C3(O)OCC24C(CC(=O)OC14)C(C)C3O (centres undefined) get here?
Result string: y

Query string: Just curious, what result did COC(=O)N[C@H](C(=O)NC(OCc1ccccc1)C1COC(C)(C)O1)C(C)O[Si](C)(C)C(C)(C)C (some centres undefined) get here?
Result string: n

Query string: Just curious, what result did Cc1ccc(O)c(C2=CC3=NNC(=O)C3C(c3cccc(Cl)c3)C2)c1 (centres undefined) get here?
Result string: n
